Listed compounds paired with reported Kd
# Study System: UniProtKB P9WQ01
# Assay Summary: biochemical
# Format: binding
# Experimental Setup: ITC Kd, six-site sequential binding model, 4th value, 25 °C, sequential binding, six-site model
Use µM as the unit, but write only the number.

N=C(N)NCCC[C@H](N)C(=O)O [L-arginine] : 9.4

Let us examine a further case.
Output measured Kd for this item: NC(N)=NOCC[C@H](N)C(=O)O [L-canavanine, reference compound] 34

###

# Study System: ArgC (Mycobacterium tuberculosis)
# Sequence (P9WPZ9 whole entry, the tested form may be a part): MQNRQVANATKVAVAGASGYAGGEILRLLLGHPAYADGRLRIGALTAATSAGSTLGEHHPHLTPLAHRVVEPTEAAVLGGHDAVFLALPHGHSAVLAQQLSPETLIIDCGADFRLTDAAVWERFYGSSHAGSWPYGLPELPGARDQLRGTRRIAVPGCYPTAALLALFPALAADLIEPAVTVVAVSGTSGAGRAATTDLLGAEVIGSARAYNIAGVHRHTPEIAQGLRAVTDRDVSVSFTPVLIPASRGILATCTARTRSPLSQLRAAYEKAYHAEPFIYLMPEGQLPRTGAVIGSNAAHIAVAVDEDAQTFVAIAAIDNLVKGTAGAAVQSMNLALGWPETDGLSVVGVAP
# Assay Summary: X-ray crystallography of ArgC soaked with fragments (binding site)
# Experimental Setup: crystal soaking
Measured Endpoint: Binding site (X-ray)

Solved entries:
NC(=O)C1=CN([C@@H]2O[C@H](COP(=O)(O)OP(=O)(O)OC[C@H]3O[C@@H](n4cnc5c(N)ncnc54)[C@H](OP(=O)(O)O)[C@@H]3O)[C@@H](O)[C@H]2O)C=CC1 [NADPH, reference compound] : Co-factor
COc1ccc2[nH]cc(CC(=O)O)c2c1 : Substrate
Nc1ccc(Oc2ccccc2)nc1 : Co-factor
COc1ccc2oc(C(=O)O)nc2c1 : Co-factor
O=C(O)C1c2ccccc2Oc2ccccc21 : Substrate

Output measured Binding site (X-ray) for this item: NC(=O)c1ccc[n+]([C@@H]2O[C@H](COP(=O)([O-])OP(=O)(O)OC[C@H]3O[C@@H](n4cnc5c(N)ncnc54)[C@H](OP(=O)(O)O)[C@@H]3O)[C@@H](O)[C@H]2O)c1 [NADP, reference compound] Co-factor
